Assay: Acute toxicity in mouse
Conditions: in vivo, po, Mouse (ICR), male, * = maximum administration level
MEASURED_QUANTITY: LD50

Briefly, LD50 measured for CC(C)C[C@H](NC(=O)[C@@H](O)[C@H](N)Cc1ccccc1)C(=O)O : > 4000 mg/kg

###

Test: Acute toxicity in rat
Settings: in vivo, ip, Rat (SD), first line, sex female, intraperitoneal
MEASURED_QUANTITY: LD50 (mg/kg)
Answer format: numeric, mg/kg implied, no suffix.

Briefly, LD50 measured for CC(C)C[C@H](NC(=O)[C@@H](O)[C@H](N)Cc1ccccc1)C(=O)O : 900

###

Experiment: Acute toxicity in mouse
Details: in vivo, sc, Mouse (ICR), male, subcutaneous
MEASURED_QUANTITY: LD50 (mg/kg)
Answer format: numeric, mg/kg implied, no suffix.

Briefly, LD50 measured for CC(C)C[C@H](NC(=O)[C@@H](O)[C@H](N)Cc1ccccc1)C(=O)O : 1300

###

Assay: Acute toxicity in mouse
Details: in vivo, sc, Mouse (ICR), female, subcutaneous
MEASURED_QUANTITY: LD50 (mg/kg)
Answer format: numeric, mg/kg implied, no suffix.

Briefly, LD50 measured for CC(C)C[C@H](NC(=O)[C@@H](O)[C@H](N)Cc1ccccc1)C(=O)O [ubenimex] : 1900

Values compiled from patent US4963588A.
